Reported pIC50 values for the following compounds.
# TESTED_TARGET: truncated form of human NaV 1.8 with full channel activity (Homo sapiens)
# Sequence (Q9Y5Y9 126-1722 limits assumed): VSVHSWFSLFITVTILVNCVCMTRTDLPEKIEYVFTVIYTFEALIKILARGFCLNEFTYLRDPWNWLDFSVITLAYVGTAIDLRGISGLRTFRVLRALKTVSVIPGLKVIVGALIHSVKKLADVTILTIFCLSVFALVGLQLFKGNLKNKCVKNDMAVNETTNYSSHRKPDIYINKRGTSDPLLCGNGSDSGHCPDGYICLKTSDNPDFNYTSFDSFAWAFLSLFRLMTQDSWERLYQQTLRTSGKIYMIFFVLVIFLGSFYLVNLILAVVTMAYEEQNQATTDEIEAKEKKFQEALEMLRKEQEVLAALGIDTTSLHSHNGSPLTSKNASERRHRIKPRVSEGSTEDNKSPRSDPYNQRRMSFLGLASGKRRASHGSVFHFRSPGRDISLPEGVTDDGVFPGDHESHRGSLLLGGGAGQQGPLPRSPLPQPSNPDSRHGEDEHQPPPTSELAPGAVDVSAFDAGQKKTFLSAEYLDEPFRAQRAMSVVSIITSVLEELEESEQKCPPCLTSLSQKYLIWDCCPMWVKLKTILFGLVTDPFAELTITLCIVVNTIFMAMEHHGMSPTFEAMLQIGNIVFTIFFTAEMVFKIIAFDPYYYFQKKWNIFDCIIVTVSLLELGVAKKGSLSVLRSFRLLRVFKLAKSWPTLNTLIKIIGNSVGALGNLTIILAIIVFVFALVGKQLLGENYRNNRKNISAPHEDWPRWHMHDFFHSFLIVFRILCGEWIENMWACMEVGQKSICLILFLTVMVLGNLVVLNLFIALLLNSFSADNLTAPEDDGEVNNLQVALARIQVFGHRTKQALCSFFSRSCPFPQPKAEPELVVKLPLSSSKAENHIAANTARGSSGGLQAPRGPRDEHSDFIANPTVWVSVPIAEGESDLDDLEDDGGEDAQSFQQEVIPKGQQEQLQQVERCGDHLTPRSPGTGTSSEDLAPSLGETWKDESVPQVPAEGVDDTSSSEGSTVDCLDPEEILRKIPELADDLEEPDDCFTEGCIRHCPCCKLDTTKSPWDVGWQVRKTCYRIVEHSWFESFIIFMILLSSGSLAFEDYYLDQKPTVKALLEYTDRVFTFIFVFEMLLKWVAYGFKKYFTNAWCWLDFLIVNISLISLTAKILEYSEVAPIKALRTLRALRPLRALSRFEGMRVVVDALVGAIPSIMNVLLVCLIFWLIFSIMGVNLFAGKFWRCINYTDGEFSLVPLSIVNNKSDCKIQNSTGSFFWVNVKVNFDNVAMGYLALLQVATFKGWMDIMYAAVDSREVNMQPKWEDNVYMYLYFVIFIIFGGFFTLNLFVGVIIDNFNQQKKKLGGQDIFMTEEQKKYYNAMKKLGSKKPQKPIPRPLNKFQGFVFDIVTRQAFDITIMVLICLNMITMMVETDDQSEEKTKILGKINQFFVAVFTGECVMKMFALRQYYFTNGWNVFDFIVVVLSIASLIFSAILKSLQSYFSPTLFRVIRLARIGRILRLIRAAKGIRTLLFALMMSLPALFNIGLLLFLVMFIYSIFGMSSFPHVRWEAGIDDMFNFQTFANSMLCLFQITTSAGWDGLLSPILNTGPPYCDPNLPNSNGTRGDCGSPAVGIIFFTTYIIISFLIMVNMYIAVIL
# ASSAY_DETAILS: E-VIPR Assay Method A for detecting and measuring Nav inhibition (HEK cells, membrane potential FRET dyes, electrical stimulation)
# Type: cell-based
# CONDITION_SUMMARY: HEK cells expressing human NaV 1.8, HS (human serum) in compound loading buffer, 11 point dose response, top dose 3 μM, Table 20, read-out: Nav 1.8 MedChem Optical Assay EVIPR Assay Method A HS IC50
On this scale, pIC50 is minus log10 of a concentration expressed in M (mol/L).

Input line: Fill blank: measured pIC50 of the compound COc1cc(OC(F)(F)F)ccc1Oc1ccc(C(F)(F)C(F)(F)F)cc1C(=O)Nc1ccc(F)c(C(N)=O)c1 is ____.
Output line: 8.00

Input line: One more compound: NC(=O)c1cc(NC(=O)c2c(Oc3ccc(OC(F)(F)F)cc3)ccc(C(F)(F)F)c2F)ccc1F
Output line: 8.15
